Entries and their MIC E. coli 25922 values follow.
Test system: E. coli 25922
Format: cell-based, Escherichia coli
cond: 25922, 24 h
Where a SMILES comes first, the peptide text is derived from it.
Provide the measurement as a number trailed by its unit.

// worked examples, MIC E. coli 25922 included
compound	recorded value
N=C(N)NCCC[C@H](NC(=O)[C@H](CCCNC(=N)N)NC(=O)[C@H](Cc1c[nH]c2ccccc12)NC(=O)[C@H](CCC(N)=O)NC(=O)[C@H](Cc1c[nH]c2ccccc12)NC(=O)[C@H](Cc1c[nH]c2ccccc12)NC(=O)[C@H](Cc1c[nH]c2ccccc12)NC(=O)[C@H](CCC(N)=O)NC(=O)[C@H](Cc1c[nH]c2ccccc12)NC(=O)[C@H](CCCNC(=N)N)NC(=O)[C@@H](N)CCCNC(=N)N)C(N)=O [Peptide S4] (H-RRWQWWWQWRR-NH2)	4 μ M
N=C(N)NCCC[C@H](NC(=O)[C@H](CCCNC(=N)N)NC(=O)[C@H](Cc1c[nH]c2ccccc12)NC(=O)[C@H](CO)NC(=O)[C@H](Cc1c[nH]c2ccccc12)NC(=O)[C@H](Cc1c[nH]c2ccccc12)NC(=O)[C@H](Cc1c[nH]c2ccccc12)NC(=O)[C@H](CO)NC(=O)[C@H](Cc1c[nH]c2ccccc12)NC(=O)[C@H](CCCNC(=N)N)NC(=O)[C@@H](N)CCCNC(=N)N)C(N)=O [Peptide S7] (H-RRWSWWWSWRR-NH2)	4 μ M
C[C@@H](O)[C@H](NC(=O)[C@H](Cc1c[nH]c2ccccc12)NC(=O)[C@H](Cc1c[nH]c2ccccc12)NC(=O)[C@H](Cc1c[nH]c2ccccc12)NC(=O)[C@@H](NC(=O)[C@H](Cc1c[nH]c2ccccc12)NC(=O)[C@H](CCCNC(=N)N)NC(=O)[C@@H](N)CCCNC(=N)N)[C@@H](C)O)C(=O)N[C@@H](Cc1c[nH]c2ccccc12)C(=O)N[C@@H](CCCNC(=N)N)C(=O)N[C@@H](CCCNC(=N)N)C(N)=O [Peptide S5] (H-RRWTWWWTWRR-NH2)	2 μ M

The record that follows has no MIC E. coli 25922 shown yet.
[in] What does the data say about its MIC E. coli 25922? Entry: N=C(N)NCCC[C@H](NC(=O)[C@H](CCCNC(=N)N)NC(=O)[C@H](Cc1c[nH]c2ccccc12)NC(=O)CNC(=O)[C@H](Cc1c[nH]c2ccccc12)NC(=O)[C@H](Cc1c[nH]c2ccccc12)NC(=O)[C@H](Cc1c[nH]c2ccccc12)NC(=O)CNC(=O)[C@H](Cc1c[nH]c2ccccc12)NC(=O)[C@H](CCCNC(=N)N)NC(=O)[C@@H](N)CCCNC(=N)N)C(N)=O [Peptide S6] (H-RRWGWWWGWRR-NH2)
[out] 4 μ M

====

System: MRSA* 43300
Type: cell-based, methicillin-resistant Staphylococcus aureus
cond: * 43300, 24 h
Where a SMILES comes first, the peptide text is derived from it.
observed property: MIC MRSA* 43300 (μ M)
Return type: number; implicit unit μ M.

// worked examples, MIC MRSA* 43300 included
compound	MIC MRSA* 43300 (μ M)
C[C@@H](O)[C@H](NC(=O)[C@H](Cc1c[nH]c2ccccc12)NC(=O)[C@H](Cc1c[nH]c2ccccc12)NC(=O)[C@H](Cc1c[nH]c2ccccc12)NC(=O)[C@@H](NC(=O)[C@H](Cc1c[nH]c2ccccc12)NC(=O)[C@H](CCCNC(=N)N)NC(=O)[C@@H](N)CCCNC(=N)N)[C@@H](C)O)C(=O)N[C@@H](Cc1c[nH]c2ccccc12)C(=O)N[C@@H](CCCNC(=N)N)C(=O)N[C@@H](CCCNC(=N)N)C(N)=O [Peptide S5] (H-RRWTWWWTWRR-NH2)	4
N=C(N)NCCC[C@H](NC(=O)[C@H](CCCNC(=N)N)NC(=O)[C@H](Cc1c[nH]c2ccccc12)NC(=O)CNC(=O)[C@H](Cc1c[nH]c2ccccc12)NC(=O)[C@H](Cc1c[nH]c2ccccc12)NC(=O)[C@H](Cc1c[nH]c2ccccc12)NC(=O)CNC(=O)[C@H](Cc1c[nH]c2ccccc12)NC(=O)[C@H](CCCNC(=N)N)NC(=O)[C@@H](N)CCCNC(=N)N)C(N)=O [Peptide S6] (H-RRWGWWWGWRR-NH2)	16
N=C(N)NCCC[C@H](NC(=O)[C@H](CCCNC(=N)N)NC(=O)[C@H](Cc1c[nH]c2ccccc12)NC(=O)[C@H](Cc1ccc(O)cc1)NC(=O)[C@H](Cc1c[nH]c2ccccc12)NC(=O)[C@H](Cc1c[nH]c2ccccc12)NC(=O)[C@H](Cc1c[nH]c2ccccc12)NC(=O)[C@H](Cc1ccc(O)cc1)NC(=O)[C@H](Cc1c[nH]c2ccccc12)NC(=O)[C@H](CCCNC(=N)N)NC(=O)[C@@H](N)CCCNC(=N)N)C(N)=O [Peptide S2] (H-RRWYWWWYWRR-NH2)	8

[in] What does the data say about its MIC MRSA* 43300? Entry: N=C(N)NCCC[C@H](NC(=O)[C@H](CCCNC(=N)N)NC(=O)[C@H](Cc1c[nH]c2ccccc12)NC(=O)[C@H](CCC(N)=O)NC(=O)[C@H](Cc1c[nH]c2ccccc12)NC(=O)[C@H](Cc1c[nH]c2ccccc12)NC(=O)[C@H](Cc1c[nH]c2ccccc12)NC(=O)[C@H](CCC(N)=O)NC(=O)[C@H](Cc1c[nH]c2ccccc12)NC(=O)[C@H](CCCNC(=N)N)NC(=O)[C@@H](N)CCCNC(=N)N)C(N)=O [Peptide S4] (H-RRWQWWWQWRR-NH2)
[out] 4

Cited source for all entries: paper PMC7160233
